Recorded values, source ChEMBL document CHEMBL1201862.

Tested on: HOP-62
Test: NCI tumour cell line growth inhibition, 48 h
Calls of active or inactive are those of the source. Cut-off read from the data, not from the text of the source: active = GI50 up to about 1.1 µM and inactive = higher.
experimentalEndpoint: GI50

INSERT INTO measurements (compound, target, experimentalendpoint, result) VALUES
  ('O=C(Nc1ccc2c(c1)oc(=O)c1ccccc12)C(Cl)Cl', 'HOP-62', 'GI50', '62.1 µM (inactive)'),
  ('O=c1c2cc(-c3ccccc3)sc2nc2n1N=C(c1ccccc1)CS2', 'HOP-62', 'GI50', '5.02 µM (inactive)'),
  ('C=C1CC(C)(c2ccc(Nc3nc4ccccc4c4occc34)cc2)OC1=O (stereo not given)', 'HOP-62', 'GI50', '12.5 µM (inactive)'),
  ('CC[S+]1C2=C(CC(C)(C)CC2=O)[N-]c2ccccc21 (stereo not given)', 'HOP-62', 'GI50', '> 100 µM (inactive)'),
  ('COc1ccc(C)cc1C1CCC(=O)O1 (stereo not given)', 'HOP-62', 'GI50', '> 100 µM (inactive)'),
  ('Cc1cc(O)c(C(C)C)cc1C(=S)Nc1ccc(Cl)cc1', 'HOP-62', 'GI50', '18.5 µM (inactive)'),
  ('O=C(/C=C/c1ccccc1O)c1cccs1', 'HOP-62', 'GI50', '> 100 µM (inactive)'),
  ('O=C1Nc2ccc(Br)cc2/C1=N/Nc1ccc([N+](=O)[O-])cc1[N+](=O)[O-]', 'HOP-62', 'GI50', '5.7 µM (inactive)'),
  ('Oc1cc(-c2c[nH]c3ccccc23)nc2cc3c(cc12)OCO3', 'HOP-62', 'GI50', '84.3 µM (inactive)'),
  ('Cc1sc2nc(-c3cccc([N+](=O)[O-])c3)c(/C=N/N=C(N)N)n2c1C', 'HOP-62', 'GI50', '1.72 µM (inactive)'),
  ('O=c1[nH]nc(-c2ccccc2)n1/N=C/c1ccco1', 'HOP-62', 'GI50', '> 100 µM (inactive)'),
  ('Cc1cc(Cc2c(C)c(C)c(Cc3cc(C)cc(C(C)(C)C)c3O)c(C)c2C)c(O)c(C(C)(C)C)c1', 'HOP-62', 'GI50', '> 100 µM (inactive)'),
  ('COC1=CC23C=CC1[C@@H](c1ccccc1)C2=C(C)C(=O)N3C(=O)NC1CCCCC1 (stereo not given in full)', 'HOP-62', 'GI50', '21.5 µM (inactive)'),
  ('Cn1c(O)c(C2=Nc3ccccc3C2=O)c2ccccc21', 'HOP-62', 'GI50', '> 100 µM (inactive)'),
  ('CCOC(=O)C(C)(C)C(O)C(C)C (stereo not given)', 'HOP-62', 'GI50', '> 100 µM (inactive)'),
  ('CNC(=O)OCC1C2=C(C(=O)C(C)=C(N)C2=O)N2CC3C(N3C)C12OC (stereo not given)', 'HOP-62', 'GI50', '14.4 µM (inactive)'),
  ('CC1CN(C(=O)CN2CCC(CCCCN(C)C)CC2)c2ccccc2NC1=O (stereo not given)', 'HOP-62', 'GI50', '> 100 µM (inactive)'),
  ('Cc1ccc(Cc2nn(C)c(=O)n2-n2cccc2)cc1', 'HOP-62', 'GI50', '> 100 µM (inactive)'),
  ('Nc1ccc(/N=N/c2ccc(/C=C/c3ccc(/N=N/c4ccc(N)c5ccc(S(=O)(=O)O)cc45)cc3S(=O)(=O)O)c(S(=O)(=O)O)c2)c2cc(S(=O)(=O)O)ccc12', 'HOP-62', 'GI50', '> 100 µM (inactive)'),
  ('COC(=O)/C=C1\CCC(C)O1 (stereo not given)', 'HOP-62', 'GI50', '> 100 µM (inactive)'),
  ('Cc1cn(CCC(N)C(=O)O)c(=O)[nH]c1=O (stereo not given)', 'HOP-62', 'GI50', '> 100 µM (inactive)'),
  ('N#Cc1c(N)nc(Sc2ccccc2N)c(C#N)c1-c1ccccc1', 'HOP-62', 'GI50', '22.1 µM (inactive)'),
  ('O=c1oc2c/c(=C\c3ccc([N+](=O)[O-])cc3)c(=O)c3cccc1c3-2', 'HOP-62', 'GI50', '38.6 µM (inactive)'),
  ('CCCCCCCCCCCC(=O)OCC1OC(n2cc(F)c(=O)[nH]c2=O)C(N)C(O)C1O (stereo not given)', 'HOP-62', 'GI50', '> 100 µM (inactive)'),
  ('CCSc1c2cc(OC)ccc2nc2ccc(OC)cc12', 'HOP-62', 'GI50', '19.1 µM (inactive)'),
  ('C1=CC(=NN=P(c2ccccc2)(c2ccccc2)c2ccccc2)C=C1', 'HOP-62', 'GI50', '> 100 µM (inactive)'),
  ('OC1CN2CCS[C@H]2C(O)C1O (stereo not given in full)', 'HOP-62', 'GI50', '> 100 µM (inactive)'),
  ('CCCCCC[C@H]1C(=O)O[C@H](C)[C@H](NC(=O)c2cccc(NC=O)c2OC)C(=O)O[C@@H](C)[C@@H]1OC(=O)C(C)CC.CCCCCC[C@H]1C(=O)O[C@H](C)[C@H](NC(=O)c2cccc(NC=O)c2OC)C(=O)O[C@@H](C)[C@@H]1OC(=O)CC(C)C (stereo not given in full)', 'HOP-62', 'GI50', '> 100 µM (inactive)'),
  ('CN(C)/C(=N\C#N)N(Cc1ccccc1)Cc1ccccc1', 'HOP-62', 'GI50', '> 100 µM (inactive)'),
  ('CC[N+](CC)(CC)/C(=N\S(=O)(=O)c1ccc(Cl)cc1)[N-]S(=O)(=O)c1cc(C)c(Cl)cc1S', 'HOP-62', 'GI50', '52 µM (inactive)');
